Measured remaining at 24 h, 5 µM, listed per entry for reference.
- methodDescription: Plasma stability
- Assay type: in vitro ADME
- studyConditions: human plasma, 37 °C, after 24 h, LC-MS, triplicate, read-out: peptide remaining in plasma
No end group written: not given here.
Give your result in % as a bare value.

substance: GWLRDFGKRIERTGQNIRDATIQTIGIAQEAANVAATLK-NH2 [EtCec2-NH2]
unitName: %
measured: 22

Next substance, please.
Please fill in: remaining at 24 h, 5 µM reported for GFLKKIGKKLEGAVQRTRDATIQTIAVAQAAANVAATAKQ-NH2 [EtCec1-NH2] = 48

---

Measured MIC, listed per entry for reference.
- System: Staphylococcus aureus ATCC 25923
- Assay type: cell-based
- studyConditions: CAMB, 18 h, 37 °C, n = 4
No end group written: not given here.

substance: GWLRDFGKRIERTGQNIRDATIQTIGIAQEAANVAATLKG [EtCec2]
studySystem: Staphylococcus aureus ATCC 25923
parameter: MIC
measured: >1024 µg/mL

Please fill in: MIC reported for QFNMQGGGSPRQGFDVNANARFPIWQSQNARNSVHGTASYAQHLGGPYGNSRPNFGGGLQFT [EtDip, diptericin-like peptide of Eristalis tenax] = >1024 µg/mL

Please fill in: MIC reported for AACSLGSLLNVGCNSCACAAHCLATRGKNGACNSQRRCVCNK (disulfide (positions not given here)) [EtDef1] = >128 µg/mL

Please fill in: MIC reported for GWLRDFGKRIERTGQNIRDATIQTIGIAQEAANVAATLK-NH2 [EtCec2-NH2] = >1024 µg/mL

---

Measured MIC, listed per entry for reference.
- Tested on: Klebsiella pneumoniae DSM 30104
- Assay type: cell-based
- studyConditions: CAMB, 18 h, 37 °C, n = 4
No end group written: not given here.
Give your result in µg/mL as a bare value.

substance: GWLRDFGKRIERTGQNIRDATIQTIGIAQEAANVAATLK-NH2 [EtCec2-NH2]
studySystem: Klebsiella pneumoniae DSM 30104
unitName: µg/mL
MIC: 16

Next substance, please.
Bench note, Klebsiella pneumoniae DSM 30104: GWLRDFGKRIERTGQNIRDATIQTIGIAQEAANVAATLKG [EtCec2] , MIC reads 32

---

- studySystem: human ERG (hERG) potassium channel (Homo sapiens, UniProt Q12809)
- Sequence (Q12809 whole entry): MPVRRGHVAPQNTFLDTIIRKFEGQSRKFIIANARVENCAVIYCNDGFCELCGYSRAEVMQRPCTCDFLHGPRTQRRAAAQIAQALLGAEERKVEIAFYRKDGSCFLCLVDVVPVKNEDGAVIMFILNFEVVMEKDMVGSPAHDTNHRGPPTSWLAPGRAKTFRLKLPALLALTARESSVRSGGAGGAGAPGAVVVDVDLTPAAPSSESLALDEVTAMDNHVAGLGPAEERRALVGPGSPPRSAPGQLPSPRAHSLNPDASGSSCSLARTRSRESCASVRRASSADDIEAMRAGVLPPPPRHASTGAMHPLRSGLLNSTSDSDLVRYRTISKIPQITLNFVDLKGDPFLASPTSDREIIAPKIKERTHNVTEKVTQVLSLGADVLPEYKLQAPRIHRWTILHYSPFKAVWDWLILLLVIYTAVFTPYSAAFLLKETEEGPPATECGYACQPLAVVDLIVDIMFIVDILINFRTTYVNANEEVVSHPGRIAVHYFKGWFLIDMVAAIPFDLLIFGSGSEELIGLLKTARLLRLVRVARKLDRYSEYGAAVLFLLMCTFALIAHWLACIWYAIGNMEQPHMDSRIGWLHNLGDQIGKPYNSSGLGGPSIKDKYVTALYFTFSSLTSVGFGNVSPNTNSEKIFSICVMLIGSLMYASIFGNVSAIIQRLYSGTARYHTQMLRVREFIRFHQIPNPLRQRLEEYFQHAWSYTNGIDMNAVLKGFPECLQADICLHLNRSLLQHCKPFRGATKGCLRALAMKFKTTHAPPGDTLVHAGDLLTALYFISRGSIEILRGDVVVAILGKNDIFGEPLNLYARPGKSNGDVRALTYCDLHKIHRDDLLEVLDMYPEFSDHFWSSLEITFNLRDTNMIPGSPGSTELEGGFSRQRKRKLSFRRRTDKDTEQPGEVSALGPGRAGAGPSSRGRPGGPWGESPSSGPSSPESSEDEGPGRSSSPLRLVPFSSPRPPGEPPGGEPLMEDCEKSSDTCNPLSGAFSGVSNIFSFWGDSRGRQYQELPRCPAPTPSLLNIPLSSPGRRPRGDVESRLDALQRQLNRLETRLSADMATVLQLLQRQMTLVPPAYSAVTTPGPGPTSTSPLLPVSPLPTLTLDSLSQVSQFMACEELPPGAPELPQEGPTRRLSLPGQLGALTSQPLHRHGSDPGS
- methodDescription: cell-based
No end group written: not given here.
Measured IC50, listed per entry for reference.

substance: GFLKKVGKKLEGASDLTRDATIQTIAVAQAAANVAATAKQ-NH2 [EtCec3-NH2]
parameter: IC50
measured: > 30 µM
//
substance: GWLRDFGKRIERTGQNIRDATIQTIGIAQEAANVAATLK-NH2 [EtCec2-NH2]
parameter: IC50
measured: > 29.9 µM

Next substance, please.
Please fill in: IC50 reported for GFLKKIGKKLEGAVQRTRDATIQTIAVAQAAANVAATAKQ-NH2 [EtCec1-NH2] = > 30 µM

---

- Test system: Staphylococcus aureus ATCC 25923
- Format: cell-based
- studyConditions: ATCC 25923, 18 h
No end group written: not given here.
Measured MIC, listed per entry for reference.

Solved cases below.
substance: GFLKKIGKKLEGAVQRTRDATIQTIAVAQAAANVAATAKQG [EtCec1]
MIC: >1024 µg/mL
//
substance: GFLKKVGKKLEGASDLTRDATIQTIAVAQAAANVAATAKQ-NH2 [EtCec3-NH2]
MIC: >1024 µg/mL
//
substance: GFLKKIGKKLEGAVQRTRDATIQTIAVAQAAANVAATAKQ-NH2 [EtCec1-NH2]
MIC: >1024 µg/mL

Next substance, please.
Bench note, Staphylococcus aureus ATCC 25923: GFLKKVGKKLEGASDLTRDATIQTIAVAQAAANVAATAKQG [EtCec3] , MIC reads >1024 µg/mL
